Origin of values: ChEMBL document CHEMBL1129609

Tested on: HeLa
Test: Effects on cell morphology of HeLa cell lines.
Assay type: functional
Conditions: Homo sapiens
QUANTITY NAME: MIC50

Known MIC50 results, listed for orientation:
MOLECULE: NC1(C23CC4CC(CC(C4)C2)C3)CCCC1
MIC50: 100 µg/mL
//
MOLECULE: CC(C)(C)C1CCCN1CC12CC3CC(CC(C3)C1)C2 (stereo unspecified)
MIC50: 200 µg/mL
//
MOLECULE: CCCCN1CCCC1C12CC3CC(CC(C3)C1)C2 (stereo unspecified)
MIC50: 200 µg/mL
//
MOLECULE: C1CCC2(C1)CCCN2CC12CC3CC(CC(C3)C1)C2
MIC50: 200 µg/mL

Give recorded MIC50. CCN1CCCC1C12CC3CC(CC(C3)C1)C2 (stereo unspecified)
> 400 µg/mL

Provide only the value of recorded MIC50 for CN(C)C1(C23CC4CC(CC(C4)C2)C3)CCCC1
200 µg/mL

Could you please provide reported MIC50 for C1CCC2(NC1)C1CC3CC(C1)CC2C3 (stereo unspecified) ? Thanks!
> 400 µg/mL

----------
Test system: MDCK
Assay: Antiviral activity of compound was tested against influenza […] virus infected MDCK cell lines
Type: functional
Conditions: Canis lupus familiaris
MIC50 overview
Numbers only here, please. The scale is µg/mL.

State MIC50 (MDCK) of CN1CCOCC12C1CC3CC(C1)CC2C3 (centres undefined) .
60

Fill in MIC50 for CN(C)CC1CCCN1C12CC3CC(CC(C3)C1)C2 (centres undefined) tested with MDCK.
60

----------
Tested on: HEF
Experiment: Effects on cell morphology of HEF cell lines.
Format: functional
Details: Homo sapiens
QUANTITY NAME: MIC50 (µg/mL)
Express it in µg/mL; write the number only.

The following compounds have reported results that may help.
COMPOUND: C1CNC(C23CC4CC(CC(C4)C2)C3)C1 (configuration not stated)
MIC50, µg/mL: 100

COMPOUND: CCN1CCCC1C12CC3CC(CC(C3)C1)C2 (configuration not stated)
MIC50, µg/mL: 200

COMPOUND: CN(C)C1(C23CC4CC(CC(C4)C2)C3)CCCC1
MIC50, µg/mL: 100

COMPOUND: CCCCN1CCCC1C12CC3CC(CC(C3)C1)C2 (configuration not stated)
MIC50, µg/mL: 100

COMPOUND: NC(=O)c1ncn([C@@H]2O[C@H](CO)[C@@H](O)[C@H]2O)n1
MIC50, µg/mL: 400

Look up and state reported MIC50 for C1CCC2(CC1)CCCN2CC12CC3CC(CC(C3)C1)C2
100

Look up and report measured MIC50 for this entry: C1CCC2(C1)CCCN2CC12CC3CC(CC(C3)C1)C2
100

Query MIC50 for CNC1(C23CC4CC(CC(C4)C2)C3)CCCC1
40

Fill in reported MIC50 for this entry: NC1(C23CC4CC(CC(C4)C2)C3)CCCC1
40

Tell me MIC50 reported for CN1CCCCC12C1CC3CC(C1)CC2C3 (configuration not stated)
100

Given CC(C)(C)C1CCCN1CC12CC3CC(CC(C3)C1)C2 (configuration not stated) , respond with its MIC50.
200

----------
System: Vero
Experiment: Antiviral activity of compound was tested against Coxsackie B4 virus infected vero cell lines.
Type: functional
Conditions: Chlorocebus sabaeus
QUANTITY NAME: MIC50

Look over these answered cases.
COMPOUND: CN(C)CC1CCN(C23CC4CC(CC(C4)C2)C3)C1 (centres undefined)
REPORTED MEASUREMENT: > 100 µg/mL
//
COMPOUND: CCN1CCOCC12C1CC3CC(C1)CC2C3 (centres undefined)
REPORTED MEASUREMENT: > 400 µg/mL
//
COMPOUND: CN1CCOCC12C1CC3CC(C1)CC2C3 (centres undefined)
REPORTED MEASUREMENT: > 400 µg/mL

We now examine a further compound.
Retrieve MIC50 measured for CN(C)CC1CCCN1C12CC3CC(CC(C3)C1)C2 (centres undefined) and print it.
> 400 µg/mL
